meta.source: ChEMBL document CHEMBL4689842

System: U2OS
Test: Multiplex assay against U2OS
Assay type: toxicity, cell-based
Details: human, 24 h, 1 µM, compound concentration 1 uM, replicate 2
Quick rule for you: Population Pyknosed Nuclei (%) at 10% or higher means T, lower means F.

Use these answered entries as a reference point.
| compoundStructure | assignedClass |
| --- | --- |
| CCOc1cc(C(=O)N2CCC(N3CCN(C)CC3)CC2)ccc1Nc1ncc2c(n1)N(C1CCCC1)c1ccccc1C(=O)N2C | T |
| CCN1CCN(c2ccc(Nc3cc(N(C)C(=O)Nc4c(Cl)c(OC)cc(OC)c4Cl)ncn3)cc2)CC1 | T |

Prompt line: Population Pyknosed Nuclei (%) >= 10% for CCCS(=O)(=O)Nc1ccc(F)c(C(=O)c2c[nH]c3ncc(Cl)cc23)c1F ?
Response line: F

Prompt line: Tell me whether Population Pyknosed Nuclei (%) is at least 10% here: C=CCn1c(=O)c2cnc(Nc3ccc(N4CCN(C)CC4)cc3)nc2n1-c1cccc(C(C)(C)O)n1
Response line: T

Prompt line: Identify whether the reported Population Pyknosed Nuclei (%) of the following compound is 10% or greater: O=C1N/C(=N/c2ccccc2F)S/C1=C\c1ccc(C(=O)O)cc1
Response line: F

Prompt line: Kindly determine if Population Pyknosed Nuclei (%) recorded for O=C(Nc1ccc(-c2ccnc(Nc3ccc(N4CCOCC4)cc3)n2)cc1)[C@@H]1CCCN1 is above or exactly 10%.
Response line: F

---

System: Fibroblast
Assay: Multiplex assay against human fibroblast
Type: toxicity, cell-based
Conditions: 12 h, 1 µM, compound concentration 1 uM, replicate 1
Binarize Population Pyknosed Nuclei (%) at 30%; below is Condition met, at or above is Condition not met.

| molecule | assignedClass |
| --- | --- |
| CCn1c(=O)c(-c2ccc(-c3cncs3)cc2Cl)cc2cnc(Nc3ccc(N4CCN(C)CC4)cc3)nc21 | Condition not met |
| COc1cccc2cc(-c3nc([C@H]4CC[C@H](C(=O)O)CC4)n4ncnc(N)c34)[nH]c12 [OSI-027] | Condition met |
| COCC(=O)NC/C=C/c1ccc2ncnc(Nc3ccc(Oc4ccc(C)nc4)c(C)c3)c2c1 [CP-724714] | Condition met |
| CCCn1c(=O)c2[nH]c(-c3cnn(Cc4cccc(C(F)(F)F)c4)c3)nc2n(CC)c1=O [GS 6201] | Condition not met |
| COc1cc(N2CCN(C)CC2)ccc1Nc1ncc2c(n1)N(C)c1ccccc1C(=O)N2C | Condition not met |
| O=C1NC(=O)C(c2cnc3ccccn23)=C1c1cn2c3c(cc(F)cc13)CN(C(=O)N1CCCCC1)CC2 [LY-2090314] | Condition not met |
| NC(=O)c1cccc(-c2cc(Nc3ccc(OC(F)(F)F)cc3)ncn2)c1 | Condition met |

In the following, a different molecule is considered.
Prompt line: I wonder whether Cl.O=C(c1ccc(Nc2nccc(-c3cc4ccccc4s3)n2)cc1)N1CCC(N2CCCC2)CC1 has Population Pyknosed Nuclei (%) below 30%. Can you tell?
Response line: Condition met

---

Test system: Fibroblast
Assay: Multiplex assay against human fibroblast
Format: toxicity, cell-based
Details: 12 h, 1 µM, compound concentration 1 uM, replicate 1
measuredParameter: Population Membrane Permeable-Phenotype (%)
Your answer is read as %, so omit the unit and give the number.

| compound | assayResult |
| --- | --- |
| COC(=N)c1nc2ccc3ncnc(Nc4ccc(OC)cc4F)c3c2s1 | 3 |

# context switch: different compound, same Population Membrane Permeable-Phenotype (%)
What the record says about CN1C2CCC1CC(OC(c1ccc(F)cc1)c1ccc(F)cc1)C2.Cl (centres undefined) : Population Membrane Permeable-Phenotype (%) is 21
